Test name: Cmax in human plasma at 5 mg
Format: ADME, cell-free
Design: dose 5 mg

>  <Molecule>
CC#CCn1c(N2CCC[C@@H](N)C2)nc2c1c(=O)n(Cc1nc(C)c3ccccc3n1)c(=O)n2C [LINAGLIPTIN]

>  <Cmax (nM)>
10

$$$$

----------
Target or system: UniProt P27487
Sequence (P27487 whole entry): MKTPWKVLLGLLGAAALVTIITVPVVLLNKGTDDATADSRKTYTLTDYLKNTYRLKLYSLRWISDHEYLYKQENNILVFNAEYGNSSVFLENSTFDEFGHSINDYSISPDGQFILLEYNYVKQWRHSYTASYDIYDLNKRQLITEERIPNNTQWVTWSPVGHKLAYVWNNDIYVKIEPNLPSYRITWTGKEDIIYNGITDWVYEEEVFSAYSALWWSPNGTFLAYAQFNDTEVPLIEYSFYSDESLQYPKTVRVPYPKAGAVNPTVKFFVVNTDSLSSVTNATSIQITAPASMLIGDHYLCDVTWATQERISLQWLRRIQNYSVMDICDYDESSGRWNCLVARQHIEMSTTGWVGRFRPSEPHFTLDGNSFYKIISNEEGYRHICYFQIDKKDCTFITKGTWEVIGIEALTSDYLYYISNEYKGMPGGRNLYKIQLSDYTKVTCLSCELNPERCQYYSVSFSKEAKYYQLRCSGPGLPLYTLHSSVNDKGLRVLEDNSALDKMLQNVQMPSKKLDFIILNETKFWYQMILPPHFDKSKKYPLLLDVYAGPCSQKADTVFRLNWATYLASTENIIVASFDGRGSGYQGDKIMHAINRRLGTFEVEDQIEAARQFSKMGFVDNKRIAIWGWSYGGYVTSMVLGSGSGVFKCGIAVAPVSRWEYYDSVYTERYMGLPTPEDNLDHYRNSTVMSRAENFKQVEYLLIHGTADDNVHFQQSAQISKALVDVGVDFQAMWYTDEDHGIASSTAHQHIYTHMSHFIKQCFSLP
pKd: −log10 of the molar value.
Property name: pKd

>  <Given smiles>
O=c1[nH]c(=O)c2c(nc(N3CCNCC3)n2Cc2ccccc2)[nH]1

>  <Property name>
pKd

>  <Val>
6.09

$$$$

Values compiled from ChEMBL document CHEMBL4431324.
